The measured values listed here are drawn from the supplement of paper PMC10567573.

B1: RHOBTB3 (parent)
chain: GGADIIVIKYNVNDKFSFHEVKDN

variants of: B1; experiment: protein stability index of a GFP-peptide fusion (GPS, HEK-293T) (PSI 1-6); higher = more stable; settings: c terminus: a fixed tail appended;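 also: lentivirally expressed fusions sorted by FACS into six bins by GFP to DsRed ratio, PSI derived from sequencing read proportions per bin multiplied by bin number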
Values of protein stability index greater than or equal to 2 map to fulfilled; values below map to not fulfilled.

sequenceString | classification
GGADDIVIKYNVNDKFSFHEVKDN [I5D] | fulfilled
IGADIIVIKYNVNDKFSFHEVKDN [G1I] | fulfilled
GGADIIVIKYNVNDKFSFYEVKDN [H19Y] | fulfilled
GGADIIVIRYNVNDKFSFHEVKDN [K9R] | fulfilled
GGADINVIKYNVNDKFSFHEVKDN [I6N] | fulfilled
GGADIWVIKYNVNDKFSFHEVKDN [I6W] | not fulfilled

Then there is this variant:
Confirm if protein stability index reported for the variant GGADIIVIKYNVNDKFSFHEVFDN [K22F] is 2 or above.
fulfilled
